Where do these numbers come from? They come from paper PMC5334605.

Tested on: brine shrimp (Artemia salina)
Assay type: in vivo
Condition notes: result in words
Recorded endpoint: lethal activity against brine shrimp

# count of solved cases: 4
Compound: C=CC(C)(C)c1[nH]c2c(CC=C(C)CO)cc(CC=C(C)C)cc2c1CC1NC(=O)C(C)NC1=O (stereo not shown) [Compound 3, 30-Hydroxyechinulin]
Tested on: brine shrimp (Artemia salina)
lethal activity against brine shrimp: weaklethal activities
--
Compound: C=CC(C)(C)c1[nH]c2ccccc2c1/C=c1\[nH]c(=O)c(=C)[nH]c1=O
Tested on: brine shrimp (Artemia salina)
lethal activity against brine shrimp: weaklethal activities
--
Compound: C=CC(C)(C)c1[nH]c2c(CC=C(C)CO)cc(CC=C(C)C)cc2c1CC1NC(=O)C(C)NC1=O (stereo not shown) [Compound 4, 29-hydroxyechinulin]
Tested on: brine shrimp (Artemia salina)
lethal activity against brine shrimp: weaklethal activities
--
Compound: C=CC(C)(C)c1[nH]c2cc(CC=C(C)C)ccc2c1/C=C1\NC(=O)C(C)(OC)NC1=O (stereo not shown)
Tested on: brine shrimp (Artemia salina)
lethal activity against brine shrimp: potent lethal activity

Value of measured lethal activity against brine shrimp for the entry C=CC(C)(C)c1[nH]c2c(CC=C(C)C)cc(CC=C(C)C)cc2c1C[C@@H]1NC(=O)C(=C)NC1=O [Compound 10, didehydroechinulin] : potent lethal activity
